Let's look at some compounds and their measured Pre-emergence action against MATIN.
Test system: MATIN
Assay: Pre-emergence action against MATIN
Assay type: in vivo, Matricaria inodora
Settings: Dosage 320 g/ha, pre-emergence
recorded endpoint: Pre-emergence action against MATIN (%)

* CCn1nnnc1NC(=O)c1ccc(S(C)(=O)=O)c(C(=O)C2CC2)c1C | 100
* COCC(=O)c1c(C(F)(F)F)ccc(C(=O)Nc2nnnn2C)c1Cl | 100
* CCC(=O)c1c(C)ccc(C(=O)Nc2nnnn2CC)c1Cl | 90
* CCCn1nnnc1NC(=O)c1ccc(I)c(C(C)=O)c1Cl | 100
* CCCn1nnnc1NC(=O)c1ccc(C(F)F)c(C(=O)C2CC2)c1SC | 100
* CSc1c(C(=O)Nc2nnnn2C)ccc(C(F)(F)F)c1C(=O)C1CCCC1 | 100
* CCn1nnnc1NC(=O)c1ccc(C(F)(F)F)c(C(=O)CCl)c1Cl | 100
* Cn1nnnc1NC(=O)c1ccc(C(F)(F)F)c(C(=O)C2(C)CC2)c1Cl | 100
* CCCn1nnnc1NC(=O)c1ccc(C)c(C(=O)CC)c1Cl | 90
* CCCn1nnnc1NC(=O)c1ccc(C)c(C(C)=O)c1Cl | 90
* CCCn1nnnc1NC(=O)c1ccc(C(F)(F)F)c(C(=O)COC)c1Cl | 100
* CCCn1nnnc1NC(=O)c1ccc(S(C)(=O)=O)c(C(C)=O)c1C | 100
* CCn1nnnc1NC(=O)c1ccc(S(C)(=O)=O)c(C(C)=O)c1C | 100
* CCCn1nnnc1NC(=O)c1ccc(S(C)(=O)=O)c(C(=O)C2CC2)c1C | 90
* CCCn1nnnc1NC(=O)c1ccc(C(F)F)c(C(=O)C2CC2)c1Cl | 100
* CCn1nnnc1NC(=O)c1ccc(C(F)(F)F)c(C(=O)C2CC2C)c1Cl (centres unmarked) | 100
* Cn1nnnc1NC(=O)c1ccc(C(F)(F)F)c(C(=O)CCl)c1Cl | 100
* CCn1nnnc1NC(=O)c1ccc(SC)c(C(=O)C2CC2)c1Cl | 100
* CCCn1nnnc1NC(=O)c1ccc(C(F)(F)F)c(C(=O)C2CC2)c1C | 100
* CCn1nnnc1NC(=O)c1ccc(SC)c(C(C)=O)c1Cl | 100
